Tested on: Colo 205
propertyLabel: GI50

Check out these entries, answers already filled in.
- compound: "COc1cc(C2C3=C(COC3=O)Nc3ccc4cc[nH]c4c32)cc(OC)c1OC (centres unmarked)"
  assayTarget: "Colo 205"
  GI50: "2300 nM"
- compound: "COc1ccc(C2C3=C(COC3=O)Nc3ccc4cn[nH]c4c32)cc1O (centres unmarked)"
  assayTarget: "Colo 205"
  GI50: "2600 nM"
- compound: "COc1cc(C2C3=C(COC3=O)Nc3ccc4ncsc4c32)ccc1O (centres unmarked)"
  assayTarget: "Colo 205"
  GI50: "2200 nM"
- compound: "COc1cc(C2C3=C(COC3=O)Nc3ccc4cc[nH]c4c32)ccc1O (centres unmarked)"
  assayTarget: "Colo 205"
  GI50: "2500 nM"
- compound: "COc1cccc2c1C(=O)c1c(O)c3c(c(O)c1C2=O)C[C@@](O)(C(=O)CO)C[C@@H]3O[C@H]1C[C@H](N)[C@H](O)[C@H](C)O1 [ADR, adriamycin, reference compound]"
  assayTarget: "Colo 205"
  GI50: "< 100 nM"

Prompt: Checklist item: GI50 tested on Colo 205, entry COc1cc(C2C3=C(COC3=O)Nc3ccc4cn[nH]c4c32)cc(OC)c1OC (centres unmarked) , value?
Response: 2700 nM

Prompt: Checklist item: GI50 tested on Colo 205, entry COc1ccc(C2C3=C(COC3=O)Nc3ccc4cc[nH]c4c32)cc1O (centres unmarked) , value?
Response: 190 nM

Prompt: Checklist item: GI50 tested on Colo 205, entry COc1ccc(C2C3=C(COC3=O)Nc3ccc4cn[nH]c4c32)cc1[N+](=O)[O-] (centres unmarked) , value?
Response: 2200 nM

* * *

System: PC3
propertyLabel: GI50 (nM)
Output spec: scalar in nM, unitless text.

- compound: "COc1ccc(C2C3=C(COC3=O)Nc3ccc4cn[nH]c4c32)cc1[N+](=O)[O-] (centres unmarked)"
  propertyLabel: "GI50"
  unitsOfMeasure: "nM"
  resultNumber: 160

Prompt: May I ask what GI50 has been recorded for COc1cccc2c1C(=O)c1c(O)c3c(c(O)c1C2=O)C[C@@](O)(C(=O)CO)C[C@@H]3O[C@H]1C[C@H](N)[C@H](O)[C@H](C)O1 [ADR, adriamycin, reference compound] ?
Response: 160

Prompt: May I ask what GI50 has been recorded for COc1cc(C2C3=C(COC3=O)Nc3ccc4cn[nH]c4c32)cc(OC)c1OC (centres unmarked) ?
Response: 190

Prompt: May I ask what GI50 has been recorded for COc1cc(C2C3=C(COC3=O)Nc3ccc4ncsc4c32)ccc1O (centres unmarked) ?
Response: 160

Prompt: May I ask what GI50 has been recorded for COc1cc(C2C3=C(COC3=O)Nc3ccc4nc(C)sc4c32)ccc1O (centres unmarked) ?
Response: 160

* * *

// values below are GI50; system is PC3
Output spec: scalar in µM, unitless text.

Check out these entries, answers already filled in.
- molecule: "COc1nc2c(c(OC)n1)C(c1cc(OC)c(OC)c(OC)c1)C1=C(COC1=O)N2 (stereo not drawn)"
  GI50 (µM): 2.4
- molecule: "COc1cc(C2C3=C(COC3=O)Nc3onc(-c4ccc(Cl)cc4)c32)cc(OC)c1OC (stereo not drawn)"
  GI50 (µM): 2.3
- molecule: "COc1ccc(-c2noc3c2C(c2ccc(OC)c(O)c2)C2=C(COC2=O)N3)cc1 (stereo not drawn)"
  GI50 (µM): 0.16
- molecule: "COc1cc(C2C3=C(COC3=O)Nc3ccc4cn[nH]c4c32)ccc1O (stereo not drawn)"
  GI50 (µM): 2.3

Prompt: Checklist item: GI50 tested on PC3, entry COc1ccc(C2C3=C(COC3=O)Nc3ccc4ncsc4c32)cc1O (stereo not drawn) , value?
Response: 2.1

Prompt: Checklist item: GI50 tested on PC3, entry COc1ccc(C2C3=C(COC3=O)Nc3ccc4cc(C)[nH]c4c32)cc1O (stereo not drawn) , value?
Response: 0.17

The reported numbers originate from patent US8927560B2.
